settings: 303.15 K; 101 kPa; Liquid
Classification field: enter True for viscosity values not below 2 mPa·s, False for values below it.

In: Threshold query (viscosity >= 2 mPa·s) on `CCC(C)=O`
Out: False

In: Subsequent entry: `CCC(C)(C)O`
Out: True

In: Note, next up: CCC(C)O (stereo not given)
Out: True

In: Same again, this time with `CC(C)CO`
Out: True

In: `CC(C)O` ?
Out: False

* * *

conditions: 308.15 K; 101 kPa; Liquid
Quantity Measured: mass density (kg/m3)
The figure you give is taken to be in kg/m3; do not add the unit.

In: GET /values?readout=mass density&item= `CC(C)CO`
Out: 790.06

In: CCC(C)O (stereo not given) , same question.
Out: 794.18

In: Now the same for `CCC(C)(C)O`
Out: 795.81

In: Follow-up item: `CC(C)O`
Out: 772.59

In: Same question for `CCC(C)=O` please.
Out: 789.78

* * *

conditions: 293.15 K; 101 kPa; Liquid
Provide the recorded mass density for the entries that follow.
Quick note: give the figure in kg/m3, leave out the unit.

In: Give its mass density value. Item: `CC(C)O`
Out: 785.45

In: Try this compound next: `CCC(C)=O`
Out: 804.92

In: Query `CCC(C)(C)O` next
Out: 809.61

In: Again, but for CCC(C)O (stereo not given)
Out: 806.48

In: Do the same for `CC(C)CO` please
Out: 801.68

* * *

details: 308.15 K; 101 kPa; Liquid
Quantity Measured: log10 of viscosity (log10 of the value in mPa·s)
// stored as log10 of viscosity expressed in mPa·s

In: Entry CCC(C)O (stereo not given) [butan-2-ol] : reported log10 of viscosity = ?
Out: 0.31

In: Now try CC(C)O [propan-2-ol] .
Out: 0.18

In: Input CCC(C)=O [butanone]
Out: -0.58

In: How about this molecule: CCC(C)(C)O [2-methylbutan-2-ol]
Out: 0.53

In: How about CC(C)CO [2-methyl-1-propanol] ?
Out: 0.38

* * *

conditions: 298.15 K; 101 kPa; Liquid
Friendly reminder: viscosity below 3 mPa·s is 1.0, at or above is 0.0.

In: Consider `CC(C)O` . Does its viscosity lie strictly below 3 mPa·s?
Out: 1.0

In: Next molecule up: `CCC(C)(C)O`
Out: 0.0

In: Also `CCC(C)=O` , if possible.
Out: 1.0

In: Also check `CC(C)CO`
Out: 0.0

* * *

I'd be grateful if you could share measured mass density for these entries.
details: 303.15 K; 101 kPa; Liquid
Numbers after ± are expanded uncertainties.
Don't forget the unit after the number, please.

In: Which value of mass density has been reported for CCC(C)=O [butanone] in the records?
Out: 794.81 ± 1.1 kg/m3

In: CCC(C)O (stereo not given) [butan-2-ol] , same question.
Out: 798.96 ± 1.1 kg/m3

In: Also CC(C)O [propan-2-ol] , if possible.
Out: 777.97 ± 1.1 kg/m3

In: Next entry: CC(C)CO [2-methyl-1-propanol]
Out: 794.16 ± 1.1 kg/m3

In: Likewise for CCC(C)(C)O [2-methylbutan-2-ol] ?
Out: 800.41 ± 1.1 kg/m3

* * *

Would you mind telling me the reported mass density of each entry?
details: 298.15 K; 101 kPa; Liquid
Entry rule: numbers only, all in kg/m3.

In: Which value of mass density has been reported for `CCC(C)(C)O` in the records?
Out: 805.01

In: Thanks! And `CC(C)O` ?
Out: 781.26

In: Would you mind doing CCC(C)O (stereo not given) as well?
Out: 802.35

In: Would you kindly repeat that for `CCC(C)=O` ?
Out: 799.7

In: Likewise for `CC(C)CO` ?
Out: 797.8

* * *

settings: 313.15 K; 101 kPa; Liquid
I'd appreciate it if you could supply mass density values for the items below.
Only the number, expressed in kg/m3, is required.

In: Give the measured mass density of `CC(C)CO` .
Out: 786.7

In: Cool, now `CC(C)O`
Out: 768.32

In: Another molecule: `CCC(C)=O`
Out: 784.32

In: Same read-out for CCC(C)O (stereo not given) ?
Out: 790.07

In: Follow-up entry: `CCC(C)(C)O`
Out: 791.21

* * *

conditions: 313.15 K; 101 kPa; Liquid
# if measured viscosity < 2 mPa·s: Criterion met  # else: Criterion not met

In: Does `CC(C)O` have viscosity strictly under 2 mPa·s?
Out: Criterion met

In: Queued: CCC(C)O (stereo not given)
Out: Criterion met

In: Proceed to `CCC(C)(C)O`
Out: Criterion not met

In: And `CCC(C)=O` ?
Out: Criterion met

* * *

conditions: 293.15 K; 101 kPa; Liquid
Quantity Measured: viscosity (mPa·s)
Answer with a number only, understood to be in mPa·s.

In: Would you kindly share the measured viscosity for `CC(C)O` ?
Out: 2.226

In: Then `CCC(C)(C)O` ?
Out: 5.108

In: Can you handle CCC(C)O (centres undefined) next?
Out: 3.632

In: Try this compound next: `CC(C)CO`
Out: 4.037
